Tested on: NCI-H322M lung
assay-notes: NCI-60 one-dose screen, 48 h (100 = growth as untreated, 0 = no growth, -100 = all killed)
test-settings: 10 µM unless noted
Compounds without any hit were thinned out: in the full panel of roughly 83,000, 20% have a hit.
property: growth (%)
Just the number in %, nothing appended.

**Query** Would you kindly share the measured growth for NS(=O)(=O)c1ccc(Nc2nc(N/N=C/c3ccc4c(c3)OCO4)nc(Nc3ccccc3)n2)cc1 ?
**Result** 61.3

**Query** Would you kindly share the measured growth for COc1ccc2c(c1)c(-c1nc(N)nnc1-c1c[nH]c3ccccc13)cn2C ?
**Result** 57.3

**Query** Would you kindly share the measured growth for COc1ccc(OC)c(CCn2cncc2-c2c[nH]c3ccc(Cl)cc23)c1 ?
**Result** 88.4

**Query** Would you kindly share the measured growth for O=C1Nc2cc(Cl)ccc2/C1=C\c1ccc(OCc2ccccc2)cc1 ?
**Result** 99.5

**Query** Would you kindly share the measured growth for CCOC(=O)c1c(NC(=O)c2ccc(C(F)(F)F)cc2)sc2c(CN3CCN(C)CC3)c(O)ccc12 ?
**Result** 10.2

**Query** Would you kindly share the measured growth for Cc1[nH]c(C(=O)Nc2ccccc2OCc2cccc(C(=O)NC3CCNC3)c2)c(Cl)c1Cl (stereo not given) ?
**Result** 70.2

**Query** Would you kindly share the measured growth for Cn1c(SCC(=O)c2ccc(Br)cc2)nc2ccccc2c1=O ?
**Result** 95.8

**Query** Would you kindly share the measured growth for COc1ccc(C2CC(c3cccc(OCCCCOc4cccc(C5=NN(C(C)=O)C(c6ccc(OC)cc6)C5)c4)c3)=NN2C(C)=O)cc1 (stereo not given) ?
**Result** 91

**Query** Would you kindly share the measured growth for Cc1[nH]c(C(=O)Nc2ccccc2OCc2cccc(C(=O)NCCN)c2)cc1Cl ?
**Result** 92.9

**Query** Would you kindly share the measured growth for Cc1cc(C)cc(NC2=C(Cl)C(=O)c3nc(C)ccc3C2=O)c1 ?
**Result** 91.7

# credit: PubChem BioAssay (NCI)
